Test system: MS2 coat protein
Test: apparent KD of MS2 coat protein; designed switch direction (-1 OFF switch, 1 ON switch): -1; higher = weaker reporter binding
Settings: Eterna round: R95; input ligand: microRNA oligo, concentration not stated
Give class 1 when the value for apparent KD of MS2 coat protein is at least 100 nM. Give class 0 when it is less.

[
  {
    "Sequence Content": "CUCUGACAUGAGGAUCACCCAUGUGAGGAUAUGAUGCAGCAGUGGUCUACGCUGUGCAUCAGAAGGCACAUGUG (puzzle: Exclusion 1)",
    "Category Label": "class 1"
  },
  {
    "Sequence Content": "AGUACUAUGCGAGCUGACUUGCGUAGUGCAGCAGGUGGAACAUGAGGAUCACCCAUGUCCUCAUUUGCUCGUCUUAU [Mat - Sensor v3 - Turn-off var 2 - D4] (puzzle: Sensor v3, turn-off variant 2)",
    "Category Label": "class 1"
  },
  {
    "Sequence Content": "ACCCAACAUGAGGAUCACCCAUGUCAGGAUAUCCAUCUAUACUCGAAAGAGUAUAGAUGGAGAAGGGACAGAGG [ChP 04-04-2015 #4] (puzzle: Exclusion 1)",
    "Category Label": "class 1"
  },
  {
    "Sequence Content": "AGAAAGGCAGGAUAUCGAUAAUAAAACAUGAGGAUCACCCAUGUGAGGCCGCGUGUAACUCGAGAAGGGCUACACG [Biarquma] (puzzle: Exclusion 5)",
    "Category Label": "class 0"
  },
  {
    "Sequence Content": "GAGAAGGUAGGAUAUACGAAGAAAGAGGGUAGGAAUAAGACACAUGAGGAUCACCCAUGUAGAAGGACCAAGAG [Mat - Exclusion 2 - Mod of my Tesla design - D49] (puzzle: Exclusion 2)",
    "Category Label": "class 0"
  },
  {
    "Sequence Content": "AAAUACAAGCAAAGAUCCUACAUGAGGAUCACCCAUGUGUUCGUCUUAUAAAGUACUAUCACGAAAGUGAUAGUACA [Sensor 3, v1 - 18] (puzzle: Sensor v3, turn-off variant 1)",
    "Category Label": "class 1"
  },
  {
    "Sequence Content": "UGUACUAUGCGAGCUGACUUGCGUAGUGCAGCAGGUGAAACAUGAGGAUCACCCAUGUCCUCAUUUGCUCGUCUUAU [SL-sv3-2.02 JL mod] (puzzle: Sensor v3, turn-off variant 2)",
    "Category Label": "class 1"
  },
  {
    "Sequence Content": "CCGCAAAUUGAGGAUAUCGUAUCGGAUACGAUACGAGAAGGCGAAACAUGAGGAUCACCCAUGUGUCCUAGCGG [Fiskers Ex 6 - 33] (puzzle: Exclusion 6)",
    "Category Label": "class 0"
  },
  {
    "Sequence Content": "CCUCGACGGUAGGAUAUCGUCAAACUAUUGUGAUGAGAAGGACUGACAUGAGGAUCACCCAUGUUAACGUGAUA [Exclusion 6 - 7:b] (puzzle: Exclusion 6)",
    "Category Label": "class 0"
  },
  {
    "Sequence Content": "AAUAAGUGAGGAUAUGCAAUAAUAAAUAAAAUAAUAAAUAAGCAGAAGGCACAUGAGGAUCACCCAUGUAAUAA [JMF's solution 1] (puzzle: Exclusion 4)",
    "Category Label": "class 0"
  },
  {
    "Sequence Content": "GGUGCGUUUGUGAGGAUAUGCUGGUCCUUGGAUCAGCAGAAGGCACAUGAGGAUCACCCAUGUGGUGUCCGUCC [salish99_Bmod_Ex4_039] (puzzle: Brourd's mod of Exclusion 4)",
    "Category Label": "class 1"
  }
]
